tested on: BDF1 mice, P388 leukemia ip, median survival T/C; experiment: NCI In Vivo Anticancer Drug Screen. Data for tumor model P388 Leukemia (intraperitoneal) in B6D2F1 (BDF1) mice; conditions: endpoint: median survival time; dose: 100.0 mg/kg/injection; schedule: Q01DX009 (ip); vehicle: saline with Tween-80; higher = longer survival
Inconclusive results and toxic doses are left out.
EXPERIMENTAL_READOUT: T/C

Examples from the recorded data:
Please list T/C recorded for the compound `Cc1cc(=O)c(O)c(N(C)C)o1`
106 % of control

Please give the documented T/C of `CCOC(=O)c1c[nH]c(=O)c([N+](=O)[O-])c1O`
96 % of control

Note T/C for the compound shown: `Nc1nc(N)nc(-c2ccc([N+](=O)[O-])o2)n1`
102 % of control

Consider the compound CC(=O)OCC(OC(C)=O)C(OC(C)=O)C(OC(C)=O)C(C#N)OC(C)=O (stereo not drawn) . State its measured T/C.
105 % of control

Provide one value: measured T/C of `COc1ccc(OC)c2c1C(=O)c1ccccc1C2=O`
90 % of control

Please give T/C, item by item, for the list that follows.
1. Cc1cccc(NC(=O)NCCOC(=O)OCCNC(=O)Nc2cccc(C)c2C)c1C
2. C=CCN(CC=C)CCSC(=S)NCCOC
3. O=C(/C=C/c1ccc(OCc2ccccc2)cc1)c1ccccc1Br
4. Oc1ccc(C=Nc2ccccc2N=Cc2ccc(O)c(O)c2)cc1O

1. 90 % of control
2. 100 % of control
3. 107 % of control
4. 109 % of control

Please state, for each entry, its recorded T/C.
1. CC(=O)N(C(C)=O)c1ccc(N=Nc2ccccc2C)cc1C
2. COc1ccc(CC(=O)NCCN(CCN(CCO)C(=O)Cc2ccc(OC)cc2)C(=O)Cc2ccc(OC)cc2)cc1
3. O=C1CCC(NC2OC(=O)c3ccccc32)C(=O)O1 (stereo not drawn)
4. NNc1nncn2c1cc1ccccc12

1. 90 % of control
2. 105 % of control
3. 102 % of control
4. 107 % of control

For each listed entry, give its T/C.
1. O=C(O)CC[S-].[Ag+]
2. Cc1c(Cl)cccc1N1C(=O)CC(Sc2ccccc2N)C1=O (stereo not drawn)
3. CN(C)c1ccc(/C=C/c2ccnc3cc(Cl)ccc23)cc1
4. CCCN(CCC)CC(O)c1cc(C(F)(F)F)nc2c(C(F)(F)F)cccc12 (stereo not drawn)
5. CCOC(=O)c1c[nH]c2nc(SC)nc(NC(C)=O)c2c1=O
6. O=C(O)C1C2CCCCC21 (stereo not drawn)
7. CC(C)(O)C(NC(N)=O)c1ccccc1 (stereo not drawn)
8. OCC1OC(Nc2ccccc2/C=N\O)C(O)C1O (stereo not drawn)

1. 86 % of control
2. 110 % of control
3. 100 % of control
4. 100 % of control
5. 87 % of control
6. 109 % of control
7. 101 % of control
8. 111 % of control

// input: 2 compounds below; output: T/C for each
1. COc1cc2c(cc1OC)/C(=N\O)CCCC2
2. Cc1ccc2c(c1)nc1c3ccccc3nc(-c3ccccc3N)n21

1. 114 % of control
2. 97 % of control

====

test system: BDF1 mice, P388 leukemia ip, median survival T/C; test: NCI In Vivo Anticancer Drug Screen. Data for tumor model P388 Leukemia (intraperitoneal) in B6D2F1 (BDF1) mice; details: endpoint: median survival time; dose: 200.0 mg/kg/injection; schedule: Q04DX003 (ip); vehicle: Klucel (hydroxypropylcellulose) (HPC); higher = longer survival
Inconclusive results and toxic doses are left out.
Could you please report measured T/C for the items listed next?

# annotated cases, reported T/C shown
Provide measured T/C value, entry: `O=Cc1cn[nH]c1-c1ccccc1`
87 % of control

Look up T/C of O=C(c1ccccc1)C1C(c2ccccc2)N1CCl (stereo not drawn) and report it.
100 % of control

Specify T/C for `COc1ccccc1NC(=O)c1ccc(Cl)cc1` and stop.
100 % of control

Dear reader, for each entry below, please note its T/C.
1. Cc1c[n+]2c3ccccc3c3ccccc3c2s1
2. COc1ccc(CNc2ncccn2)cc1
3. CCOC(=O)C(C(=O)OCC)C1C=CCC1 (stereo not drawn)
4. C(=N\N(c1ccccc1)c1ccccc1)/c1ccc(/C=N/N(c2ccccc2)c2ccccc2)cc1
5. CCC(c1ccc2cc(OC)ccc2c1)C(CC(=O)O)C(=O)OC (stereo not drawn)

["90 % of control", "96 % of control", "116 % of control", "100 % of control", "91 % of control"]

# return T/C for each item in the list
1. C=CCN(CC=C)c1ccccc1
2. COc1cc2ccc(CC(=O)NCCc3ccc4c(c3)OCO4)cc2cc1OC
3. CCCCCCCCCCCC(=O)N(C)C
4. Cc1cc(C)cc(CCc2cc(C)cc(C)c2)c1

1. 100 % of control
2. 90 % of control
3. 100 % of control
4. 90 % of control

Please indicate T/C recorded for `COc1cc2c(cc1OC)/C(=N\O)CCCC2`
100 % of control
